tested on: DLD-1; assay: MTS assay, DLD-1 cells; format: cell-based; conditions: Homo sapiens, 72 hours, read-out: DLD-1, MTS cell kill % inhibition
measuredEndpoint: inhibition at 10 µM

// worked examples, inhibition at 10 µM included
Cc1ccccc1N(C)C(=O)c1ccc2[nH]c(-c3ccc[nH]c3=O)c(-c3ccccc3)c2c1
50 to 79%
O=C(NCCCN1CCOCC1)c1ccc2[nH]c(-c3ccc[nH]c3=O)c(-c3cc4cccc5c4n3CCC5)c2c1
80 to 100%

Hey, can you go through the list below and give me inhibition at 10 µM for every item?
1. O=C(NCCCN1CCOCC1)c1cc2c3c(c1)c(-c1ccccc1)c(-c1ccc[nH]c1=O)n3CCC2
2. O=C(c1ccc2[nH]c(-c3ccc[nH]c3=O)c(-c3ccc(-c4ccccc4)cc3)c2c1)N1CCc2ccccc2C1
3. CCOc1ccc(-c2c(-c3ccc[nH]c3=O)[nH]c3ccc(C(=O)NCCCN4CCOCC4)cc23)cc1
4. O=C(c1ccc2[nH]c(-c3ccc[nH]c3=O)c(-c3ccc(-c4ccccc4)cc3)c2c1)N1CCN(c2cnccn2)CC1

< 50%
50 to 79%
80 to 100%
50 to 79%

* * *

Give measured inhibition at 10 µM for each item. Keep answers brief.
system: DLD-1; experiment: MTS assay, DLD-1 cells; type: cell-based; settings: Homo sapiens, 72 hours, read-out: DLD-1, MTS cell kill % inhibition

// worked examples, inhibition at 10 µM included
O=C(NCCCN1CCOCC1)c1ccc2[nH]c(-c3ccc[nH]c3=O)c(-c3ccc4ncccc4c3)c2c1
80 to 100%
O=C(NCCCN1CCOCC1)c1ccc2[nH]c(-c3ccc[nH]c3=O)c(-c3csc4ccccc34)c2c1
50 to 79%
COc1ccc(-c2c(-c3ccc[nH]c3=O)[nH]c3ccc(C(=O)NCCCN4CCOCC4)cc23)cc1OC
< 50%

Hey, can you go through the list below and give me inhibition at 10 µM for every item?
1. CN(C)CCCNCc1ccc2[nH]c(-c3ccc[nH]c3=O)c(-c3ccc(-c4ccccc4)cc3)c2c1
2. CCN(CC)CCCNC(=O)c1ccc2[nH]c(-c3ccc[nH]c3=O)c(-c3ccccc3)c2c1
3. Cc1ccccc1-c1c(-c2ccc[nH]c2=O)[nH]c2ccc(C(=O)NCCCN3CCOCC3)cc12
4. O=C(NCCCN1CCOCC1)c1ccc2[nH]c(-c3ccc[nH]c3=O)c(-c3ccc(F)c(Cl)c3)c2c1
5. CCc1ccc(-c2c(-c3ccc[nH]c3=O)[nH]c3ccc(C(=O)NCCCN4CCOCC4)cc23)cc1
6. O=C(c1ccc2[nH]c(-c3ccc[nH]c3=O)c(-c3ccc(-c4ccccc4)cc3)c2c1)N1CCN(c2ccccc2F)CC1
7. O=C(c1ccccc1)N1CCC(c2c(-c3ccc[nH]c3=O)[nH]c3ccccc23)CC1
8. CC(C)Oc1ccc(-c2c(-c3ccc[nH]c3=O)[nH]c3ccc(C(=O)NCCCN4CCOCC4)cc23)cc1

50 to 79%
50 to 79%
< 50%
80 to 100%
80 to 100%
< 50%
< 50%
50 to 79%

Hey, can you go through the list below and give me inhibition at 10 µM for every item?
1. O=C(NCCOc1ccccc1)c1ccc2[nH]c(-c3ccc[nH]c3=O)c(-c3ccc(-c4ccccc4)cc3)c2c1
2. O=C(NCCCN1CCOCC1)c1ccc2[nH]c(-c3ccc[nH]c3=O)c(-c3cccc(F)c3)c2c1
3. Cc1ccc(-c2c(-c3ccc[nH]c3=O)[nH]c3ccc(C(=O)NCCCN4CCOCC4)cc23)cc1

["< 50%", "50 to 79%", "50 to 79%"]
